Parameter Emax: see the listing below.
- Study system: human mAChR M1 (Homo sapiens, UniProt P11229)
- Construct: host or cells: CHO-K1 (ATCC), stably transfected using Lipofectamine 2000
- Sequence (P11229 whole entry): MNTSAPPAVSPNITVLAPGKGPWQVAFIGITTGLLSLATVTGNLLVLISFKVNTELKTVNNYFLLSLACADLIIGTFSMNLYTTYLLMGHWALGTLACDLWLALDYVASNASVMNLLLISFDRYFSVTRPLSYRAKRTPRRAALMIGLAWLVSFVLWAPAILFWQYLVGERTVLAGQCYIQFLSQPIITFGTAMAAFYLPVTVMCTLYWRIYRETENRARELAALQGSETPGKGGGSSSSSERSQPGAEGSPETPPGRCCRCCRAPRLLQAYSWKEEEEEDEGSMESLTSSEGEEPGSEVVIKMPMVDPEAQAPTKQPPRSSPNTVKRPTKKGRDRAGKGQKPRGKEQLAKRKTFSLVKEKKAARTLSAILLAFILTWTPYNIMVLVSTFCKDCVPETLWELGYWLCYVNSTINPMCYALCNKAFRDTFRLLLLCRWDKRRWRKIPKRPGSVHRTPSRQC
- Test: mAChR M1 cell-based functional assay (calcium mobilization, Fluo-4, FDSS)
- Recorded conditions: CHO-K1 cells stably expressing hM1; calcium flux; PAM mode with EC20 acetylcholine
Don't forget the unit after the number, please.

Molecule	Assay endpoint	Value measured
Cn1cc2c(-c3cc(F)c(CN4Cc5cnn(CC6CCCO6)c5C4=O)c(F)c3)cccc2n1 (centres unmarked)	Emax	93%
Cn1cc(-c2ccc(CN3Cc4ccsc4C3=O)c(F)c2)cn1	Emax	67%
Cn1cc2cc(-c3ccc(CN4Cc5sccc5C4=O)c(F)c3)ccc2n1	Emax	51%
CCn1ccc2c1C(=O)N(Cc1c(F)cc(-c3cccc4nn(C)cc34)cc1F)C2	Emax	63%

The reported value for Cn1cc2c(-c3cc(F)c(CN4Cc5ccsc5C4=O)c(F)c3)cccc2n1 in terms of Emax is 70%
